Test: chemical genetic growth profiling, strain panel (AID 1159580);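 further: tested at 20 µM; growth read once vehicle control cultures reached saturation at 30 °C; 1 = growth at the plate median or of vehicle wells; lower values mean less growth of the strain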
Conditions: S. cerevisiae deletion strains, growth OD, locus YDR502C, strain sam2, stronger effect = lower value
About 2,000 (36%) of roughly 5,500 compounds were called active. Another 18% or so got no clear call; they are omitted. This is one part of the list.
Catalogue of normalized growth values
// return just the number, without any unit appended

Example cases with answers are listed next.
>>> df
                                   compound  result
0  C=C1C2=CC(=O)O[C@@H](c3ccoc3)[C@]2(C)CCC1[C@@]1(C)C=CC(=O)C(C)(C)[C@@H]1CC(=O)OC (some centres undefined)   0.988
1        CCN(CC)CCOC(=O)C(c1ccccc1)c1ccccc1       1
2  C=C1C(C2(C)C=CC(=O)C(C)(C)C2CC(=O)OC)CC[C@@]2(C)[C@H](c3ccoc3)OC(=O)C3OC132 (some centres undefined)   0.979

Query: Fill in the blank: the reported normalized growth of C=C1C2CCC3(C)C(c4ccoc4)OC(=O)CC13OC1CC(OC(C)=O)C(C)(C)C(CC(=O)OC)C12C (centres undefined) is ____.
Response: 0.994

----------
Experiment: chemical genetic growth profiling, strain panel (AID 1159580);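 further: tested at 20 µM; growth read once vehicle control cultures reached saturation at 30 °C; 1 = growth at the plate median or of vehicle wells; lower values mean less growth of the strain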
Details: S. cerevisiae deletion strains, growth OD, locus YHR142W, strain chs7
The campaign covered roughly 5,500 compounds. About 2,000 (36%) were called active. Another 18% or so got no clear call; they are omitted. Rule as the data show it: active = normalized growth mostly below about 0.91 (no sharp cut-off); inconclusive = no clear call, values can overlap the other calls; inactive = mostly above about 0.92. Some of the results follow.
Reply using exactly one outcome from active, inactive

Before answering, review these 3 worked examples.
                                   compound  category
0                     COc1c2ccccc2nc2occc12    active
1  COc1cc(C)c(C(=O)Oc2cc(C)c(C(=O)O)c(O)c2C)c(OC)c1C  inactive
2                  COc1c(Cl)ccc(Cl)c1C(=O)O  inactive

Query: Dear colleague, could you share the recorded outcome for `CC12CC3CC(C)(C1)CC(N)(C3)C2` when you have a moment?
Response: inactive

Query: Dear colleague, could you share the recorded outcome for `COc1cc(OC)c(OC)cc1C=O` when you have a moment?
Response: inactive

Query: Dear colleague, could you share the recorded outcome for `O=C(O)c1ccccc1C(=O)Nc1ccc(S(=O)(=O)Nc2nccs2)cc1` when you have a moment?
Response: inactive

Query: Dear colleague, could you share the recorded outcome for `CO[C@]12C[C@@H](COC(=O)c3cncc(Br)c3)CN(C)[C@@H]1Cc1cn(C)c3cccc2c13` when you have a moment?
Response: inactive

Query: Dear colleague, could you share the recorded outcome for `Cc1cc(O)c(C=O)c2c1C(=O)Oc1c(COC(=O)/C=C/C(=O)O)c(O)c(C(=O)O)c(C)c1O2` when you have a moment?
Response: active

Query: Dear colleague, could you share the recorded outcome for `CCCC(C(=O)OCCN(CC)CC)(c1ccccc1)c1ccccc1` when you have a moment?
Response: inactive

Query: Dear colleague, could you share the recorded outcome for CC1CCC2(OC1)OC1CC3C4CCC5C[C@@H](O)CCC5(C)C4=CCC3(C)C1[C@@H]2C (stereo partly specified) when you have a moment?
Response: inactive

Query: Dear colleague, could you share the recorded outcome for CCCCS(=N)(=O)CCC(N)C(=O)O (stereo unspecified) when you have a moment?
Response: inactive
